assayed system: human full-length MKNK1 (Homo sapiens, UniProt Q9BUB5, T385D)
Construct: GST (N)
Sequence (Q9BUB5 1-424 isoform Q9BUB5-2 T344D): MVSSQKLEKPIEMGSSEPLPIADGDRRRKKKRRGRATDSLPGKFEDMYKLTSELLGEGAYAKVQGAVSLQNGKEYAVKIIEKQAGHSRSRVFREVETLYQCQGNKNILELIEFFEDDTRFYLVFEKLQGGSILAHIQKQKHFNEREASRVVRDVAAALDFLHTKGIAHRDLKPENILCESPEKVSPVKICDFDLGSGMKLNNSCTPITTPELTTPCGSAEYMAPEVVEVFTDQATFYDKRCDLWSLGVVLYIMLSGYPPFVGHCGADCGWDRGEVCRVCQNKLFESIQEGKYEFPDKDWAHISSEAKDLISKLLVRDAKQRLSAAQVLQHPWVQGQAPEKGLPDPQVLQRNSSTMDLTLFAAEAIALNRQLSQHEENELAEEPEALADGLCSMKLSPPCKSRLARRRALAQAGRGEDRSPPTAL
assay: MKNK1 kinase high ATP assay (TR-FRET)
condition parameters: high ATP (2 mM final), 15 min preincubation with enzyme, 30 min reaction at 22° C.
Description: MKNK1-inhibitory activity at high ATP of compounds of the present invention after their preincubation with MKNK1 was quantified employing the TR-FRET-based MKNK1 high ATP assay as described in the following paragraphs. […]

- smi: "COc1cc2[nH]ncc2cc1Nc1ncnc2[nH]c(C(=O)NCC(=O)N(C)C)c(Br)c12"
  IC50 [nM]: 14
- smi: "COc1cc2[nH]ncc2cc1Nc1ncnc2[nH]c(S(C)(=O)=O)cc12"
  IC50 [nM]: 6
- smi: "CN(C)C(=O)c1c[nH]c2ncnc(Nc3cc4cn[nH]c4cc3F)c12"
  IC50 [nM]: 31
- smi: "CC(C)NC(=O)c1c[nH]c2ncnc(Nc3cc4cn[nH]c4cc3OC(C)C)c12"
  IC50 [nM]: 94
- smi: "CCCc1[nH]c2ncnc(Nc3cc4cn[nH]c4cc3OC(C)C)c2c1CC"
  IC50 [nM]: 21
- smi: "Fc1cc2[nH]ncc2cc1Nc1ncnc2[nH]cc(Br)c12"
  IC50 [nM]: 12
- smi: "CC(C)Oc1cc2[nH]ncc2cc1Nc1ncnc2[nH]c(S(=O)(=O)c3ccccc3)cc12"
  IC50 [nM]: 2
- smi: "CC(C)Oc1cc2[nH]ncc2cc1Nc1ncnc2[nH]c(CCCO)cc12"
  IC50 [nM]: 35
- smi: "COc1cc2[nH]ncc2cc1Nc1ncnc2[nH]c(Cl)cc12"
  IC50 [nM]: 21

---

assayed system: human full-length MKNK1 (Homo sapiens, UniProt Q9BUB5, T385D)
Construct: GST (N)
assay: MKNK1 kinase high ATP assay (TR-FRET)
condition parameters: high ATP (2 mM final), 15 min preincubation with enzyme, 30 min reaction at 22° C.
Threshold check on IC50: strictly below 3 nM is MET; on or above 3 nM is NOT MET.

- smi: "CCOC(=O)c1[nH]c2ncnc(Nc3cc4cn[nH]c4cc3OC)c2c1Br"
  class: "MET"
- smi: "COc1cc2[nH]ncc2cc1Nc1ncnc2[nH]c(C(=O)N3CCCCC3)c(Br)c12"
  class: "MET"
- smi: "CC(C)Oc1cc2[nH]ncc2cc1Nc1ncnc2[nH]c(Cl)cc12"
  class: "NOT MET"
- smi: "CCOC(=O)c1[nH]c2ncnc(Nc3cc4cn[nH]c4cc3OC(C)C)c2c1Br"
  class: "MET"
- smi: "CC(C)NC(=O)c1c[nH]c2ncnc(Nc3cc4cn[nH]c4cc3F)c12"
  class: "NOT MET"
- smi: "O=C(O)c1c[nH]c2ncnc(Nc3cc4cn[nH]c4cc3F)c12"
  class: "NOT MET"
- smi: "CCCc1[nH]c2ncnc(Nc3cc4cn[nH]c4cc3OC)c2c1CC"
  class: "MET"
- smi: "CC(C)Oc1cc2[nH]ncc2cc1Nc1ncnc2[nH]cc(C(=O)N(C)C)c12"
  class: "NOT MET"
- smi: "CCc1c[nH]c2ncnc(Nc3cc4cn[nH]c4cc3OC)c12"
  class: "MET"
- smi: "Fc1cc2[nH]ncc2cc1Nc1ncnc2[nH]c(Br)cc12"
  class: "NOT MET"
- smi: "COc1cc2[nH]ncc2cc1Nc1ncnc2[nH]c(C(=O)N3CCC3)c(Br)c12"
  class: "MET"
- smi: "COc1cc2[nH]ncc2cc1Nc1ncnc2[nH]c(C(=O)N(C)C)c(Br)c12"
  class: "MET"
- smi: "COc1cc2[nH]ncc2cc1Nc1ncnc2[nH]cc(C#N)c12"
  class: "MET"
- smi: "COc1cc2[nH]ncc2cc1Nc1ncnc2[nH]c(Br)cc12"
  class: "NOT MET"
- smi: "COc1cc2[nH]ncc2cc1Nc1ncnc2[nH]cc(C(=O)NC(C)C)c12"
  class: "NOT MET"
- smi: "Cc1cc2[nH]ncc2cc1Nc1ncnc2[nH]cc(F)c12"
  class: "NOT MET"
- smi: "Cc1cc2[nH]ncc2cc1Nc1ncnc2[nH]cc(C(=O)NC(C)C)c12"
  class: "NOT MET"
- smi: "COc1cc2[nH]ncc2cc1Nc1ncnc2[nH]c(C(=O)O)c(Br)c12"
  class: "MET"
- smi: "FC(F)(F)c1n[nH]c2ccc(Nc3ncnc4[nH]ccc34)cc12"
  class: "NOT MET"
- smi: "COc1cc2[nH]ncc2cc1Nc1ncnc2[nH]ccc12"
  class: "NOT MET"
- smi: "COc1cc2[nH]ncc2cc1Nc1ncnc2[nH]cc(F)c12"
  class: "NOT MET"
- smi: "COc1cc2[nH]ncc2cc1Nc1ncnc2[nH]c(C(=O)N3CCOCC3)c(Br)c12"
  class: "MET"
